meta.source: ChEMBL document CHEMBL2321794

target: GABA-B receptor (Homo sapiens, UniProt O75899+Q9UBS5); experiment: Agonist activity at human GABA-B B1/B2 receptor expressed in HEK293 cells assessed as inhibition of forskolin-stimulated cAMP accumulation after 3 hrs by luciferase reporter gene assay
Sequence (Q9UBS5 whole entry): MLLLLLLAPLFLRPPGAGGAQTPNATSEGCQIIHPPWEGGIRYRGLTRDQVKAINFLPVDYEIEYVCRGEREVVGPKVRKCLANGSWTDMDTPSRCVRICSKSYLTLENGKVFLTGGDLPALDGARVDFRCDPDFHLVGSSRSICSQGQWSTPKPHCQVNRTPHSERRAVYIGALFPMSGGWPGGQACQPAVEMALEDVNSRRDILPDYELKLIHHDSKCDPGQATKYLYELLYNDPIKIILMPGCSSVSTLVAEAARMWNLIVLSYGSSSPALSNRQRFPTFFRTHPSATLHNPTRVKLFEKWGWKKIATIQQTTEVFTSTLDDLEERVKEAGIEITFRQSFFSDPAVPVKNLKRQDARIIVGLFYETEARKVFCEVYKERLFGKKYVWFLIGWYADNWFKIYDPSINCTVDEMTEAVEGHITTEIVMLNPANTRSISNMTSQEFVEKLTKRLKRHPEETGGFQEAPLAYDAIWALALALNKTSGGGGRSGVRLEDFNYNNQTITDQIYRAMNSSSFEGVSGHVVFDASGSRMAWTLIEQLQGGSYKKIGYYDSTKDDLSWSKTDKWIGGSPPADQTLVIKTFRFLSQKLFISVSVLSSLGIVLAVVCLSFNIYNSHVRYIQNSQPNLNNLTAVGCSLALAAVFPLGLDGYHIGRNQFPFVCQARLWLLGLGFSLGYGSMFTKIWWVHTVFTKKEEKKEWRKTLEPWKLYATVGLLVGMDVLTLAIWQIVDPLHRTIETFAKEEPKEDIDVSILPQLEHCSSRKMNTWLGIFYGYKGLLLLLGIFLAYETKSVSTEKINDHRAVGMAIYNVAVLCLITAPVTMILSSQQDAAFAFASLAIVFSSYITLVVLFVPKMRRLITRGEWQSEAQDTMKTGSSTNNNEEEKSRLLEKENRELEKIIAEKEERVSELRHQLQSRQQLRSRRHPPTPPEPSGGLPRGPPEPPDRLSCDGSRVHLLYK
Sequence (O75899 whole entry): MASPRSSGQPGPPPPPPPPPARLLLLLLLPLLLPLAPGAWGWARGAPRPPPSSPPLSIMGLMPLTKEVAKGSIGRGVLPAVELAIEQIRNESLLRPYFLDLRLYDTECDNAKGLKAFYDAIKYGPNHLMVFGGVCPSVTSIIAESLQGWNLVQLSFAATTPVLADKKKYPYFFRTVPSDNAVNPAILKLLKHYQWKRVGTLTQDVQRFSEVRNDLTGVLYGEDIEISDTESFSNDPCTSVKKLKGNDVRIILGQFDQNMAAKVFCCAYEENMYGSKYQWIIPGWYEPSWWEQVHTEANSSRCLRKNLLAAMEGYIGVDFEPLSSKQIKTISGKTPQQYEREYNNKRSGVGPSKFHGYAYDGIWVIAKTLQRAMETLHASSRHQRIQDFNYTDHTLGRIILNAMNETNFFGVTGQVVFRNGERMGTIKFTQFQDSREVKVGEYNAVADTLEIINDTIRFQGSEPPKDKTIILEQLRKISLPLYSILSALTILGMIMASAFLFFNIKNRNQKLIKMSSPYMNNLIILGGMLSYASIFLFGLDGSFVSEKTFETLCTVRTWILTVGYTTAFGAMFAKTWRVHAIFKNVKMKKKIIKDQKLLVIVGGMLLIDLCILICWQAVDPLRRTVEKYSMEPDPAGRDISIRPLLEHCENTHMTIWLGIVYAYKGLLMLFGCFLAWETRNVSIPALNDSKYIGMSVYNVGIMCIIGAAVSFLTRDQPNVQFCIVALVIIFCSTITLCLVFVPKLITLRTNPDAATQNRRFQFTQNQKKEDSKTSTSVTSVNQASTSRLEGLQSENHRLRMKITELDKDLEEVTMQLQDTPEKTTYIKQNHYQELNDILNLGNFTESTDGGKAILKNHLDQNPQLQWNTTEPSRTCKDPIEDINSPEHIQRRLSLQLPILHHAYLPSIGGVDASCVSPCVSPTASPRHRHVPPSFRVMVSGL
pEC50: −log10 of the molar value.
measurement_label: pEC50

>>> reported_measurement("O=C(C12CC3CC(CC(C3)C1)C2)C(F)(F)C(O)/C=C/c1ccccc1 (racemic)")
4.40
>>> reported_measurement("CC(=O)c1ccc(C(O)CC(=O)C23CC4CC(CC(C4)C2)C3)cc1 (racemic)")
"< 4.00"
>>> reported_measurement("C/C=C/C=C/C(O)C(F)(F)C(=O)/C=C/CCCC (racemic)")
"< 4.00"
